# Test system: Cryptococcus neoformans
# Assay conditions: Concentration 20 uM; ASSAY_TEST Inhibition of Fungal Growth; detection method Resazurin; Absorption (OD600-OD570); plate type 384well; NBS; CORNING #3640
# Description: Antifungal activity against Cryptococcus neoformans H99 ATCC 208821 (CO-ADD:FG_002); MIC in YNB media using NBS plates, by Resazurin OD(600-570)
Entries with a potency or affinity are not part of this list.
Readout type: Inhibition

Here's what some known entries look like.
Cl.O=C(NCC1CCCCN1)c1cc(OCC(F)(F)F)ccc1OCC(F)(F)F (centres undefined) | -9.22%
CN(C)CCCN1c2ccccc2Sc2ccc(Cl)cc21.Cl [CHLORPROMAZINE HYDROCHLORIDE] | 2.71%
CC1(C)O[C@@H]2C[C@H]3[C@@H]4C[C@H](F)C5=CC(=O)C=C[C@]5(C)[C@@]4(F)[C@@H](O)C[C@]3(C)[C@]2(C(=O)CO)O1 [FLUOCINOLONE ACETONIDE] | 6.47%

Please examine the following record next.
What Inhibition value was documented for this molecule, C[C@]12CCC(=O)C=C1CC[C@@H]1[C@@H]2[C@@H](O)C[C@@]2(C)[C@H]1CC[C@]2(O)C(=O)COC(=O)CCC(=O)O [HYDROCORTISONE HEMISUCCINATE ANHYDROUS] ?
6.86%

----------
# System: Candida albicans
# Assay conditions: 20 µM
# Description: Antifungal activity against Candida albicans ATCC 90028 (CO-ADD:FG_001); MIC in YNB media using NBS plates, by OD630
Potency and affinity values are given separately.
Please respond with reported Inhibition for every item in the list.
Answers are plain numbers, in %.

CC[C@H](C)C(=O)O[C@H]1C[C@@H](C)C=C2C=C[C@H](C)[C@H](CC[C@@H]3C[C@@H](O)CC(=O)O3)[C@H]21 | 17.1

# batch: return Inhibition for each of the 4 compounds below
1. C[C@]12C=CC(=O)C=C1CC[C@@H]1[C@@H]2[C@@H](O)C[C@@]2(C)[C@H]1CC[C@]2(O)C(=O)COC(=O)CCC(=O)[O-].[Na+] [PREDNISOLONE SODIUM SUCCINATE]
2. CC(Oc1c(Cl)cccc1Cl)C1=NCCN1.Cl (stereo not given) [LOFEXIDINE HYDROCHLORIDE]
3. COc1cc(C(=O)NS(=O)(=O)c2ccccc2C)ccc1Cc1cn(C)c2ccc(NC(=O)OC3CCCC3)cc12
4. CC1Cc2ccccc2N1NC(=O)c1ccc(Cl)c(S(N)(=O)=O)c1 (stereo not given) [INDAPAMIDE]

-0.07
2.12
0.8
-0.23

# batch: return Inhibition for each of the 5 compounds below
1. O=C1CCc2ccc(OCCCCN3CCN(c4cccc(Cl)c4Cl)CC3)cc2N1
2. CCN(CC)CC1CCCCN1CC(=O)N1c2ccccc2C(=O)Nc2cccnc21 (stereo not given)
3. Nc1ccn([C@@H]2CS[C@H](CO)O2)c(=O)n1
4. C/C=C1/[C@H]2C=C(C)C[C@]1(N)c1ccc(O)nc1C2
5. Cc1cccc(CN2CCN(C(c3ccccc3)c3ccc(Cl)cc3)CC2)c1.Cl.Cl (stereo not given)

1: -0.97; 2: 3.03; 3: 2.4; 4: 2.85; 5: 1.13

----------
# Tested on: Candida albicans
# Assay conditions: 20 µM
Entries with a potency or affinity are not part of this list.
Assign class 1 to entries whose Inhibition meets or exceeds 3%; assign class 0 to the rest.

Answered cases to consult:
CC(C)[C@H]1CC[C@H](C(=O)N[C@H](Cc2ccccc2)C(=O)O)CC1 [NATEGLINIDE] | class 1
C[C@H]1O[C@@H](O[C@H]2[C@@H](O)C[C@H](O[C@H]3[C@@H](O)C[C@H](O[C@H]4CC[C@@]5(C)[C@H](CC[C@@H]6[C@@H]5C[C@@H](O)[C@]5(C)C(C7=CC(=O)OC7)CC[C@]65O)C4)O[C@@H]3C)O[C@@H]2C)C[C@H](O)[C@@H]1O (some centres undefined) | class 1
CCC1=C(C)CN(C(=O)NCCc2ccc(S(=O)(=O)NC(=O)N[C@H]3CC[C@H](C)CC3)cc2)C1=O [GLIMEPIRIDE] | class 0

Identify whether the reported Inhibition of the following compound is 3% or greater: CCCN[C@H]1CCc2nc(N)sc2C1 [PRAMIPEXOLE]
class 1

Identify whether the reported Inhibition of the following compound is 3% or greater: CCCc1nc2c(C)cc(-c3nc4ccccc4n3C)cc2n1Cc1ccc(-c2ccccc2C(=O)O)cc1
class 0

Identify whether the reported Inhibition of the following compound is 3% or greater: CC(=O)NCCCCCCNC(C)=O [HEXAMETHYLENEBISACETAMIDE]
class 0

Identify whether the reported Inhibition of the following compound is 3% or greater: CC(=O)/N=c1/sc(S(N)(=O)=O)nn1C [METHAZOLAMIDE]
class 1

Identify whether the reported Inhibition of the following compound is 3% or greater: C#C[C@]1(O)CC[C@H]2[C@@H]3CCc4cc(O)ccc4[C@H]3CC[C@@]21C
class 0

Identify whether the reported Inhibition of the following compound is 3% or greater: CCc1ccc(CCOc2ccc(CC3SC(=O)NC3=O)cc2)nc1.Cl (centres undefined) [PIOGLITAZONE HYDROCHLORIDE]
class 0

----------
# Test system: Klebsiella pneumoniae
# Assay conditions: Concentration 20 uM; ASSAY_TEST Inhibition of Bacterial Growth; detection method Absorption (OD600); MEDIA CAMHB; plate type 384well; NBS; CORNING #3640; time 18 hr
# Description: Antibacterial activity against Klebsiella pneumoniae MDR ATCC 70063 (CO-ADD:GN_003); MIC in CAMBH media using NBS plates, by OD(600)
Potency and affinity values are given separately.
Please respond with reported Inhibition for every item in the list.
Answers are plain numbers, in %.

# batch: return Inhibition for each of the 3 molecules below
1. COc1ccc(OC)c(C(O)CNC(=O)CN)c1.Cl (stereo not drawn) [MIDODRINE HYDROCHLORIDE]
2. O=C(CCCN1CC=C(n2c(=O)[nH]c3ccccc32)CC1)c1ccc(F)cc1 [DROPERIDOL]
3. CCC1=C(C)CN(C(=O)NCCc2ccc(S(=O)(=O)NC(=O)N[C@H]3CC[C@H](C)CC3)cc2)C1=O [GLIMEPIRIDE]

8.37
9.88
11.97

----------
# System: Cryptococcus neoformans
# Assay conditions: Concentration 20 uM; ASSAY_TEST Inhibition of Fungal Growth; detection method Resazurin; Absorption (OD600-OD570); plate type 384well; NBS; CORNING #3640
Entries with a potency or affinity are not part of this list.
Please respond with reported Inhibition for every item in the list.
Numbers only, in %.

CCN(CC)CCNC(=O)c1ccc(N)cc1.Cl [PROCAINAMIDE HYDROCHLORIDE] | 3.84
CC(COc1ccccc1Cc1ccccc1)N1CCCCC1.O=P(O)(O)O (stereo unspecified) | 0.43
CCOC(=O)OC(C)OC1=C(C(=O)Nc2ccccn2)N(C)S(=O)(=O)c2ccccc21 (stereo unspecified) | -3.23
O=C1C(CC[S+]([O-])c2ccccc2)C(=O)N(c2ccccc2)N1c1ccccc1 (stereo unspecified) | -8.91
Cn1cnc([N+](=O)[O-])c1Sc1ncnc2[nH]cnc12 | -6.38

What measured Inhibition is associated with COc1cc(N)c(Cl)cc1C(=O)N[C@@H]1CCN(CCCOc2ccc(F)cc2)C[C@@H]1OC.O [(R,S)-CISAPRIDE MONOHYDRATE] on Cryptococcus neoformans?
3.24

----------
# Tested on: Klebsiella pneumoniae
# Assay conditions: Concentration 20 uM; ASSAY_TEST Inhibition of Bacterial Growth; detection method Absorption (OD600); MEDIA CAMHB; plate type 384well; NBS; CORNING #3640; time 18 hr
Entries with a potency or affinity are not part of this list.
Readout type: Inhibition (%)
Answers are plain numbers, in %.

# batch: return Inhibition for each of the 5 compounds below
1. O=c1cnn([C@@H]2O[C@H](CO)[C@@H](O)[C@H]2O)c(=O)[nH]1
2. Cl.O=C(c1ccc(OCCN2CCCCC2)cc1)c1c(-c2ccc(O)cc2)sc2cc(O)ccc12 [RALOXIFENE HYDROCHLORIDE]
3. CC(N)C12CC3CC(CC(C3)C1)C2.Cl (stereo not given) [RIMANTADINE HYDROCHLORIDE]
4. COC(=O)CCc1ccc(OCC(O)CNC(C)C)cc1.Cl (stereo not given) [ESMOLOL HYDROCHLORIDE]
5. Br.Br.O=C1CC2(CCCC2)CC(=O)N1CCNCC1COc2ccccc2O1 (stereo not given)

1. 4.69
2. 7.01
3. 8.19
4. 3.48
5. 12.27

----------
# Test system: Cryptococcus neoformans
# Assay conditions: Concentration 20 uM; ASSAY_TEST Inhibition of Fungal Growth; detection method Resazurin; Absorption (OD600-OD570); plate type 384well; NBS; CORNING #3640
Entries with a potency or affinity are not part of this list.
Please respond with reported Inhibition for every item in the list.
Give bare numbers, in %.

Cc1cccc(CN2CCN(C(c3ccccc3)c3ccc(Cl)cc3)CC2)c1.Cl.Cl (stereo unspecified) | -13
CCc1nn(CCCN2CCN(c3cccc(Cl)c3)CC2)c(=O)n1CCOc1ccccc1.Cl [NEFAZODONE HYDROCHLORIDE] | -2.69

# batch: return Inhibition for each of the 4 molecules below
1. CCC1=C[C@H]2CN(C1)Cc1c([nH]c3ccccc13)[C@@](C(=O)OC)(c1cc3c(cc1OC)N(C)[C@H]1[C@@](O)(C(=O)OC)[C@H](OC(C)=O)[C@]4(CC)C=CCN5CC[C@]31[C@@H]54)C2.O=C(O)C(O)C(O)C(=O)O.O=C(O)C(O)C(O)C(=O)O
2. CN(C)CC/C=C1/c2ccccc2COc2ccc(CC(=O)O)cc21.Cl [OLOPATADINE HYDROCHLORIDE]
3. CC(C)(C(=O)O)c1ccc(C(O)CCCN2CCC(C(O)(c3ccccc3)c3ccccc3)CC2)cc1.Cl (stereo unspecified) [FEXOFENADINE HYDROCHLORIDE]
4. CCOC(=O)C1=C(C)NC(C)=C(C(=O)OC)C1c1cccc([N+](=O)[O-])c1 (stereo unspecified)

-7.91
4.6
-7.41
-6.79

This collection of values is drawn from ChEMBL document CHEMBL4513141.
